# system-name: osteocalcin (Homo sapiens)
# Construct: The mature peptide is 49 amino acids long with 3 Gla residues and one difulfide bond
# Sequence (P02818 52-100): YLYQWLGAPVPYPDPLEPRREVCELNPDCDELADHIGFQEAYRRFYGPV
# run-description: Effect of Ca2+ on the inhibitory action of osteocalcin on secPHEX
# test-conditions: CaCl2 varied from 10^−6 to 10^−2 M; constant osteocalcin 2×10^−6M (FIG. 6B); read-out: Ca2+ concentration necessary to reduce the inhibitory potency of osteocalcin by 50%
# Procedure: One μg of purified secPHEX or secPHEXE581V was incubated with 5 μg of peptide substrate for 30 min at 37° C. in a volume of 200 μl of 50 mM MES (2-(N-morpholino) ethanesulfonic acid) pH6.5, 150 mM NaCl. […] The potentiating agent was identified when the intact substrate was determined to be present in a […] concentration than in the absence of the potentiating agent (see FIG. 6). […]

compound: [Ca+2] [Ca^2+, CaCl2, reference compound]
scale-unit: mM
EC50: 5
